viability inhibition: recorded values
Tested on: HCT116
MEASUREMENT NOTES: viability inhibition vs untreated; higher = more cytotoxic
SETTINGS: genotype: MTA1-KO; 16 nM; 72 h
Return type: number; implicit unit %.

// below: answered compounds
COc1cc(Nc2nc3ccccc3nc2NS(=O)(=O)c2ccc(NC(=O)c3ccc(C)c(OC)c3)cc2)cc(OC)c1 | -13.9
CC1(C)OCCn2c1nc1c(N3CCOCC3)nc(-c3cnc(N)nc3)nc12 | -2.94

Ask: For CCCC(=O)O[C@]1(C(=O)CO)CC[C@H]2[C@@H]3CCC4=CC(=O)CC[C@]4(C)[C@H]3[C@@H](O)C[C@@]21C [Hydrocortisone butyrate] , what is its reported viability inhibition?
Reply: -3.78

Ask: For Cc1c(C(=O)N2CCOc3ccc(-c4ccc(N)nc4)cc3C2)ccc(S(C)(=O)=O)c1F , what is its reported viability inhibition?
Reply: -7.29

Ask: For CCCC[S+]([O-])c1sc2nc(-c3cccs3)cc(-c3ccccc3)c2c1N (stereo not drawn) , what is its reported viability inhibition?
Reply: 13.3

Ask: For Nc1nonc1C(=Nc1ccc(F)c(Cl)c1)NO , what is its reported viability inhibition?
Reply: 11.1

Ask: For NS(=O)(=O)c1cc2c(cc1Cl)NC(CSCc1ccccc1)=NS2(=O)=O [Benzthiazide] , what is its reported viability inhibition?
Reply: -4.89
